- protocol-text: Protein binding in human plasma
- Assay type: ADME, cell-free
- run-parameters: read-out: PPB (converted)
assay-metric: fraction unbound

Ask: Name the recorded fraction unbound for CC(C)(O)c1cccn2c(C3(c4ccc(Cl)cc4)CC3)nnc12 [BMS-823778 FREE BASE] .
Reply: 0.15

* * *

- protocol-text: Volume of distribution at steady state in Balb/C mouse at 5 mg/kg, iv by LC-MS/MS analysis
- Format: ADME, organism-based
- run-parameters: in vivo, read-out: Vdss
assay-metric: Vd (L/kg)
Numbers only, in L/kg.

Ask: Name the recorded Vd for CC(C)(O)c1cccn2c(C3(c4ccc(Cl)cc4)CC3)nnc12 [BMS-823778 FREE BASE] .
Reply: 1.2

* * *

- protocol-text: Oral bioavailability in cynomolgus monkey at 1.47 mg/kg by LC-MS/MS analysis
- Format: ADME, organism-based, Macaca fascicularis
- run-parameters: in vivo
assay-metric: bioavailability (%)
Give bare numbers, in %.

Ask: Name the recorded bioavailability for CC(C)(O)c1cccn2c(C3(c4ccc(Cl)cc4)CC3)nnc12 [BMS-823778 FREE BASE] .
Reply: 100

* * *

- protocol-text: Stability in human microsomes assessed as parent compound remaining after 30 mins
- Format: ADME, Microsome
- run-parameters: read-out: Stability
assay-metric: remaining at 0.5 h

Ask: Name the recorded remaining at 0.5 h for CC(C)(O)c1cccn2c(C3(c4ccc(Cl)cc4)CC3)nnc12 [BMS-823778 FREE BASE] .
Reply: 96 to 100%

* * *

- protocol-text: Ratio of drug level in liver to plasma in diet induced obese mouse administered via oral gavage
- Type: ADME
- run-parameters: liver and plasma
assay-metric: Kp
Numbers only.

Ask: Name the recorded Kp for CC(C)(O)c1cccn2c(C3(c4ccc(Cl)cc4)CC3)nnc12 [BMS-823778 FREE BASE] .
Reply: 3.5

* * *

- protocol-text: Permeability of the compound by PAMPA
- Assay type: ADME
- run-parameters: read-out: permeability
assay-metric: Papp

Ask: Name the recorded Papp for CC(C)(O)c1cccn2c(C3(c4ccc(Cl)cc4)CC3)nnc12 [BMS-823778 FREE BASE] .
Reply: > 50 ×10⁻⁶ cm/s

* * *

- study-system: 11-beta-hydroxysteroid dehydrogenase 1 (Mus musculus, UniProt P50172)
- Sequence (P50172 whole entry): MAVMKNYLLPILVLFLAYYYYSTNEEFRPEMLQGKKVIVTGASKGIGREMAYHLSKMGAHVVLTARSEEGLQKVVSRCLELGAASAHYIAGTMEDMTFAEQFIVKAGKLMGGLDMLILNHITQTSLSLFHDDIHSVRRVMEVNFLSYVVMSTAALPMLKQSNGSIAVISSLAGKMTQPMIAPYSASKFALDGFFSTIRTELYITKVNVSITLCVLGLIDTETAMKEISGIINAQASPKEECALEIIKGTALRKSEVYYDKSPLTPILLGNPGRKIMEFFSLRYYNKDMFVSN
- protocol-text: Inhibition of recombinant mouse 11beta-HSD1 expressed in HEK293 cell microsomes using [3H]cortisone as substrate after 4 hrs by homogeneous immuno-radiometric scintillation proximity assay
What log10 IC50 was measured for each of the following?
On a log10 scale: recorded IC50, unit µM.

Ask: Name the recorded log10 IC50 for `CC(C)(CCO)c1cccn2c(C3(c4ccc(Cl)cc4)CC3)nnc12` .
Reply: 0.06

Ask: And `OCc1cccn2c(C3(c4ccc(Cl)cc4)CC3)nnc12` ?
Reply: 0.58

Ask: And OC(c1cccn2c(C3(c4ccc(Cl)cc4)CC3)nnc12)C1CC1 (stereo not drawn) ?
Reply: 0.91

Ask: And `OCCCc1cccn2c(C3(c4ccc(Cl)cc4)CC3)nnc12` ?
Reply: 0.76

We now examine a further compound.
Ask: Name the recorded log10 IC50 for CC(C)(O)c1cccn2c(C3(c4ccc(Cl)cc4)CC3)nnc12 [BMS-823778 FREE BASE] .
Reply: -0.22

* * *

- protocol-text: Ratio of drug level in adipose tissue to plasma in diet induced obese mouse administered via oral gavage
- Format: ADME
- run-parameters: adipose tissue and plasma
assay-metric: Kp
Give bare numbers.

Ask: Name the recorded Kp for CC(C)(O)c1cccn2c(C3(c4ccc(Cl)cc4)CC3)nnc12 [BMS-823778 FREE BASE] .
Reply: 2.5

* * *

- study-system: UniProt:P33261
- Sequence (P33261 whole entry): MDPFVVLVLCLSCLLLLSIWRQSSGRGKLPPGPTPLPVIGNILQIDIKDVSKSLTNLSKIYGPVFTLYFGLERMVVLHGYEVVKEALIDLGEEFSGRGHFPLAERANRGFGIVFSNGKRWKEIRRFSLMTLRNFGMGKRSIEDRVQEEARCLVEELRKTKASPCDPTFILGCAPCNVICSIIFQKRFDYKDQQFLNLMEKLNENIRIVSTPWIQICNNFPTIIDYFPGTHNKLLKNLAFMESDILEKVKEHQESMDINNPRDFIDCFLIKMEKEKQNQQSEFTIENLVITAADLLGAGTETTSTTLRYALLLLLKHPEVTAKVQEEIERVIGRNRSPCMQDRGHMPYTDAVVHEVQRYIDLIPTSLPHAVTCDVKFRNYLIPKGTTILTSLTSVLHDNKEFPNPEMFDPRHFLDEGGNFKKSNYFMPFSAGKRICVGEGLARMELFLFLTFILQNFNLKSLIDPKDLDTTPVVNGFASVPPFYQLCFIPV
pIC50: −log10 of the molar value.
assay-metric: pIC50

Ask: Name the recorded pIC50 for CC(C)(O)c1cccn2c(C3(c4ccc(Cl)cc4)CC3)nnc12 [BMS-823778 FREE BASE] .
Reply: < 4.52

* * *

- protocol-text: Aqueous solubility of the compound at pH 1 using crystalline sample
- Format: physicochemical
assay-metric: solubility thermodynamic (mg/mL)
One number for each entry, in mg/mL.

Ask: Name the recorded solubility thermodynamic for CC(C)(O)c1cccn2c(C3(c4ccc(Cl)cc4)CC3)nnc12.Cl [BMS-823778] .
Reply: 220

* * *

- study-system: Cytochrome P450 2D6 (Homo sapiens)
- Sequence (P10635 whole entry): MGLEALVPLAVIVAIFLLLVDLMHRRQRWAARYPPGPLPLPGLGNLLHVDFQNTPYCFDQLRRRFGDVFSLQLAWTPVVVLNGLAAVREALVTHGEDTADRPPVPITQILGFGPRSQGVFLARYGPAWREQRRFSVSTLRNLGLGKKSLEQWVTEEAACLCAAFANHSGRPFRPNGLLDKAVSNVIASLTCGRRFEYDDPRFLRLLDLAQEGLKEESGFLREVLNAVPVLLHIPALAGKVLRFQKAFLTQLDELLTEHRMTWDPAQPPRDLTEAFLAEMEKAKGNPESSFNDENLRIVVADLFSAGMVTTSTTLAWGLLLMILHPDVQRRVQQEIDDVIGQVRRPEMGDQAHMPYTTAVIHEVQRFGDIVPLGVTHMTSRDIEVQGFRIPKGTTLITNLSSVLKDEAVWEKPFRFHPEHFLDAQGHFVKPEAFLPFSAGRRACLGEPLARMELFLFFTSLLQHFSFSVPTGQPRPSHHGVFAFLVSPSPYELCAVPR
assay-metric: IC50

Ask: Name the recorded IC50 for CC(C)(O)c1cccn2c(C3(c4ccc(Cl)cc4)CC3)nnc12 [BMS-823778 FREE BASE] .
Reply: > 30 µM

* * *

- study-system: 11-beta-hydroxysteroid dehydrogenase 1 (Homo sapiens)
- Sequence (P28845 whole entry): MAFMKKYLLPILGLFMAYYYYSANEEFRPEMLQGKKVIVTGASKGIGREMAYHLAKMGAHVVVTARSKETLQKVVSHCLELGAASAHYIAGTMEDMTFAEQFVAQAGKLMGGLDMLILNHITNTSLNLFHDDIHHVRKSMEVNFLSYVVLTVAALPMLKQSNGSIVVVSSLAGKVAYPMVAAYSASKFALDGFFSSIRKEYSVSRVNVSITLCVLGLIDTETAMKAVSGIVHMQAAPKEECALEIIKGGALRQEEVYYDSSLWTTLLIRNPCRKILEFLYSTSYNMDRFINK
- protocol-text: Inhibition of recombinant human 11beta-HSD1 expressed in HEK293 cell microsomes using [3H]cortisone as substrate after 4 hrs by homogeneous immuno-radiometric scintillation proximity assay
assay-metric: Ki (nM)
Numbers only, in nM.

Ask: Name the recorded Ki for CC(C)(O)c1cccn2c(C3(c4ccc(Cl)cc4)CC3)nnc12 [BMS-823778 FREE BASE] .
Reply: 0.9

* * *

- protocol-text: Total plasma clearance in Balb/C mouse at 5 mg/kg, iv by LC-MS/MS analysis
- Assay type: ADME, organism-based
assay-metric: clearance (mL/min/kg)
Give bare numbers, in mL/min/kg.

Ask: Name the recorded clearance for CC(C)(O)c1cccn2c(C3(c4ccc(Cl)cc4)CC3)nnc12 [BMS-823778 FREE BASE] .
Reply: 2.3

* * *

- study-system: 11-beta-hydroxysteroid dehydrogenase 1 (Mus musculus, UniProt P50172)
- protocol-text: Inhibition of recombinant mouse 11beta-HSD1 expressed in HEK293 cell microsomes using [3H]cortisone as substrate after 4 hrs by homogeneous immuno-radiometric scintillation proximity assay
assay-metric: pKi
Numbers only, as −log10 of the molar value.

Ask: Name the recorded pKi for CC(C)(O)c1cccn2c(C3(c4ccc(Cl)cc4)CC3)nnc12 [BMS-823778 FREE BASE] .
Reply: 6.42

* * *

- study-system: Cytochrome P450 2C9 (Homo sapiens, UniProt P11712)
- Sequence (P11712 whole entry): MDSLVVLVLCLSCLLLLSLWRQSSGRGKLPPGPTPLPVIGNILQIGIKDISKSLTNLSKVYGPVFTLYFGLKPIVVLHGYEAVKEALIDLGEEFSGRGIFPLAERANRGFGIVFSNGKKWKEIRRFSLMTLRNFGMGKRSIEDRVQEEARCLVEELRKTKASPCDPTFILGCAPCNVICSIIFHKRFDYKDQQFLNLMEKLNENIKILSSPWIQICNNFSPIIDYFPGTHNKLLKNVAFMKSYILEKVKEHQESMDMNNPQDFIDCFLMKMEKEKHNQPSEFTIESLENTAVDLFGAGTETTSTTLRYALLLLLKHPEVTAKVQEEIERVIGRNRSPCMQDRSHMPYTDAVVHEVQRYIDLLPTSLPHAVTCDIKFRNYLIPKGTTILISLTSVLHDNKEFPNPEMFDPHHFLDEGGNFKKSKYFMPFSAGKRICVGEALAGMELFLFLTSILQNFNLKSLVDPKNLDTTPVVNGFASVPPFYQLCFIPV
- protocol-text: Inhibition of human CYP2C9
- Type: ADME
assay-metric: IC50

Ask: Name the recorded IC50 for CC(C)(O)c1cccn2c(C3(c4ccc(Cl)cc4)CC3)nnc12 [BMS-823778 FREE BASE] .
Reply: > 30 µM

* * *

- study-system: Nuclear receptor subfamily 1 group I member 2 (Homo sapiens)
- Sequence (O75469 whole entry): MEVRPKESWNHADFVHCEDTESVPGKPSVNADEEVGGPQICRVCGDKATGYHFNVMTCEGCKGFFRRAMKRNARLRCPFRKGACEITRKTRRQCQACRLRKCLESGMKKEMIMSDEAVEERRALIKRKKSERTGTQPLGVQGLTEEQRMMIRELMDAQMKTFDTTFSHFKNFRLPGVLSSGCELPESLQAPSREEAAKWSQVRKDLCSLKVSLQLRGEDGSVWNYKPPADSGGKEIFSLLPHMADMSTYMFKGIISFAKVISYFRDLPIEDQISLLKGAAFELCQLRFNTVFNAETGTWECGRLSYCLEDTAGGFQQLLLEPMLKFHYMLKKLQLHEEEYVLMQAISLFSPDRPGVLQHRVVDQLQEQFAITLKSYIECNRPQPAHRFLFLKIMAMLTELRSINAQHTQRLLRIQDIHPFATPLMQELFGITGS
- protocol-text: Activation of PXR (unknown origin)
assay-metric: pEC50
Give bare numbers, as −log10 of the molar value.

Worked examples, 4 compounds total:
Ask: Name the recorded pEC50 for OC(c1cccn2c(C3(c4ccc(Cl)cc4)CC3)nnc12)C1CC1 (stereo not drawn) .
Reply: 4.32

Ask: And `OCc1cccn2c(C3(c4ccc(Cl)cc4)CC3)nnc12` ?
Reply: 4.60

Ask: And `OCCCc1cccn2c(C3(c4ccc(Cl)cc4)CC3)nnc12` ?
Reply: 4.60

Ask: And `CC(C)(CCO)c1cccn2c(C3(c4ccc(Cl)cc4)CC3)nnc12` ?
Reply: 5.89

***
Ask: Name the recorded pEC50 for `CC(C)(O)CCc1cccn2c(C3(c4ccc(Cl)cc4)CC3)nnc12` .
Reply: 5.44

* * *

Target sequence: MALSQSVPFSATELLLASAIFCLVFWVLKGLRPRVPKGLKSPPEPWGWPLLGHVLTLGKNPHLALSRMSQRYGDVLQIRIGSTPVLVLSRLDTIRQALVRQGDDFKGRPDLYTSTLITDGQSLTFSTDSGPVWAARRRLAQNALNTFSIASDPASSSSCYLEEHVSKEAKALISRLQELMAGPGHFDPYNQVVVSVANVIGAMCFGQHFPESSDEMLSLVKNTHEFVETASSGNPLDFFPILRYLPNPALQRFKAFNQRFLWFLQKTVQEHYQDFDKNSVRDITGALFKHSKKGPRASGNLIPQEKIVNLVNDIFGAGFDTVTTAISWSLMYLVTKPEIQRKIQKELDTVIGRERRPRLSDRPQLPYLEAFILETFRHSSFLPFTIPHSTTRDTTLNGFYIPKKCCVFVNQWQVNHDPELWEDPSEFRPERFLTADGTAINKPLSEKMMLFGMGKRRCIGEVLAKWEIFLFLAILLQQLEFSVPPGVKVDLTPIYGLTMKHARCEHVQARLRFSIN
pIC50: −log10 of the molar value.
assay-metric: pIC50

Ask: Name the recorded pIC50 for CC(C)(O)c1cccn2c(C3(c4ccc(Cl)cc4)CC3)nnc12 [BMS-823778 FREE BASE] .
Reply: < 4.52

* * *

- protocol-text: Stability in rat microsomes assessed as parent compound remaining after 30 mins
- Assay type: ADME, Microsome
- run-parameters: read-out: Stability
assay-metric: remaining at 0.5 h

Ask: Name the recorded remaining at 0.5 h for CC(C)(O)c1cccn2c(C3(c4ccc(Cl)cc4)CC3)nnc12 [BMS-823778 FREE BASE] .
Reply: 96 to 100%

* * *

- protocol-text: Oral bioavailability in Balb/C mouse at 10 mg/kg by LC-MS/MS analysis
- Format: ADME, organism-based
- run-parameters: in vivo
assay-metric: bioavailability (%)
One number for each entry, in %.

Ask: Name the recorded bioavailability for CC(C)(O)c1cccn2c(C3(c4ccc(Cl)cc4)CC3)nnc12 [BMS-823778 FREE BASE] .
Reply: 44
